- TGT: Cathepsin K (Homo sapiens)
- Sequence (P43235 whole entry): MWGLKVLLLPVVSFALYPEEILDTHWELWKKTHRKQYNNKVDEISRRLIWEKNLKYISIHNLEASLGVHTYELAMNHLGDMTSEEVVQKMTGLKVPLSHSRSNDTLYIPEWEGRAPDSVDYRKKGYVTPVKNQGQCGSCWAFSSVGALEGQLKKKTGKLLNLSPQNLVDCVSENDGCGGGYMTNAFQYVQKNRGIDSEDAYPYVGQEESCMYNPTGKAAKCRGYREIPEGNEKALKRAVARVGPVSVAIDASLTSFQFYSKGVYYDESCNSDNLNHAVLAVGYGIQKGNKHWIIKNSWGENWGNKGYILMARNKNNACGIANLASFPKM
- ASSAY_NAME: Inhibitory activity against cathepsin K
- Set-up: concentration or dose not given beside the values
- EXPERIMENTAL_PARAMETERS: concentration not given here
Would you mind labelling by inhibition? At or over 10% is yes (1), under is no (0).

Example entries begin here.
COMPOUND	TGT	ASSIGNED_LABEL
CC[C@H](C)[C@@H](/C=C/c1ccccc1)NC(=O)[C@@H]1C=CCN1CC(=O)c1ccccc1	Cathepsin K (Homo sapiens)	yes (1)
O=C(CN1CCCC[C@H]1C(=O)Nc1ccc2oc3ccccc3c2c1)c1ccccc1	Cathepsin K (Homo sapiens)	no (0)
CC[C@H](C)[C@@H](/C=C/c1ccccc1)NC(=O)[C@@H]1Cc2ccccc2CN1CC(=O)c1ccccc1	Cathepsin K (Homo sapiens)	yes (1)
CC[C@H](C)[C@@H](/C=C/c1ccncc1)NC(=O)[C@@H]1CCCCN1CC(=O)c1ccccc1	Cathepsin K (Homo sapiens)	no (0)
CC[C@H](C)[C@@H](/C=C/c1ccccc1)NC(=O)[C@@H]1CCCCN1CC(=O)c1ccc([N+](=O)[O-])cc1	Cathepsin K (Homo sapiens)	yes (1)

Is the recorded value of inhibition equal to or greater than 10% for this compound? CC[C@H](C)[C@@H](/C=C/c1ccccc1)NC(=O)[C@@H]1CCCCN1CC(C)=O no (0)

Is the recorded value of inhibition equal to or greater than 10% for this compound? CC[C@H](C)[C@@H](/C=C/c1ccccc1)NC(=O)[C@@H]1CCCN1CC(=O)c1ccccc1 yes (1)

Is the recorded value of inhibition equal to or greater than 10% for this compound? CCC(=O)CN1CCCC[C@H]1C(=O)N[C@H](/C=C/c1ccccc1)[C@@H](C)CC yes (1)

Is the recorded value of inhibition equal to or greater than 10% for this compound? CC[C@H](C)[C@@H](/C=C/c1ccccc1)NC(=O)[C@@H]1CCCCN1CC(O)c1cc(OC)c(OC)c(OC)c1 (stereo partly specified) no (0)

Is the recorded value of inhibition equal to or greater than 10% for this compound? CC[C@H](C)[C@@H](/C=C/c1ccccc1)NC(=O)[C@@H]1CCCCN1CC(=O)c1ccc(C#N)cc1 yes (1)

Is the recorded value of inhibition equal to or greater than 10% for this compound? CC[C@H](C)[C@@H](/C=C/c1ccccn1)NC(=O)[C@@H]1CCCCN1CC(=O)c1ccccc1 yes (1)

Is the recorded value of inhibition equal to or greater than 10% for this compound? CC[C@H](C)[C@@H](/C=C/c1ccccc1)NC(=O)[C@@H]1CCCCN1CC(=O)c1cccc([N+](=O)[O-])c1 yes (1)

====

- TGT: Cathepsin K (Homo sapiens)
- ASSAY_NAME: Inhibitory activity against cathepsin K
# key: entry, value: IC50
Write the numeric value and append its unit.

Some solved entries appear below for comparison.
CC(C)C[C@@H](/C=C/c1ccccc1)NC(=O)[C@@H]1CCCCN1CC(=O)c1ccccc1 840 nM
CC[C@H](C)[C@@H](/C=C/c1ccccc1)NC(=O)[C@@H]1CCCCN1CC(=O)c1c(OC)cccc1OC 700 nM
CC[C@H](C)[C@@H](/C=C/c1ccc(Cl)cc1)NC(=O)[C@@H]1CCCCN1CC(=O)c1ccccc1 1400 nM
CC[C@H](C)[C@@H](/C=C/c1ccccc1)NC(=O)[C@@H]1CCCCN1CC(=O)c1ccc2c(c1)OCO2 590 nM
CC[C@H](C)[C@@H](/C=C/c1ccccc1)NC(=O)[C@@H]1CCCCN1CC(=O)c1cc(OC)c(OC)c(OC)c1 1200 nM
COc1cc(C(=O)CN2CCCC[C@H]2C(=O)N[C@H](/C=C/c2ccccc2)CC(C)C)cc(OC)c1OC 1500 nM
CC[C@H](C)[C@@H](/C=C/c1ccccc1)NC(=O)[C@@H]1CCCCN1CC(=O)c1ccc(OC)cc1 410 nM
CC[C@H](C)[C@@H](/C=C/c1ccc(C)cc1)NC(=O)[C@@H]1CCCCN1CC(=O)c1ccccc1 740 nM
CC[C@H](C)[C@@H](/C=C/c1ccccc1C)NC(=O)[C@@H]1CCCCN1CC(=O)c1ccccc1 590 nM
CC[C@H](C)[C@@H](/C=C/c1ccccc1)NC(=O)[C@@H]1CCCCN1CC(=O)c1ccccc1 230 nM

Now take the following compound into account.
Recorded IC50 for CC[C@H](C)[C@@H](/C=C/c1ccccc1)NC(=O)[C@@H]1CCCCN1CC(=O)c1ccc(Cl)cc1 , please? 280 nM
